All values here come from patent US10144715B2.

Could you please report measured pEC50 for the items listed next?
molecular target: Gal4 DNA binding domain fused to the LBD of LXRα in HEK293 cells (Homo sapiens (Human), UniProt Q13133); assay: LXR luciferase transcriptional reporter gene assay, agonist mode, LXRα; format: cell-based; conditions: agonist mode; read-out: Cell LXRα EC50
Sequence (Q13133 209-447): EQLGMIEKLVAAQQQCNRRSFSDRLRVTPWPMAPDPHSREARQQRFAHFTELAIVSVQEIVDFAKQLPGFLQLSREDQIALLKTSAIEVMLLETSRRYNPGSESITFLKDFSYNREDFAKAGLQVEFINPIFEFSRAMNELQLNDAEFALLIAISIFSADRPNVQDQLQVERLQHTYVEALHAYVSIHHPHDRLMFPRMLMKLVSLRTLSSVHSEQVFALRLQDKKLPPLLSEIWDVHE
pEC50: −log10 of the molar value.

Worked examples, 5 compounds total:
- Compound: "CC(C)[C@@H]1CN(c2ccc(F)c(S(C)(=O)=O)c2)CCN1c1ncc(C(=O)N2CC(N)C2)c(C(F)(F)F)n1 [17-4]"
  pEC50: "< 4.70"
- Compound: "CS(=O)(=O)c1cccc(N2CCN(Cc3ccc(C(F)(F)F)nc3)C(c3ccc(Br)cc3)C2)c1 (stereo not drawn) [46-61]"
  pEC50: "< 4.70"
- Compound: "Cc1ccc(CN2CCN(c3cccc(S(C)(=O)=O)c3)CC2c2ccccc2)cn1 (stereo not drawn) [46-40]"
  pEC50: "< 4.70"
- Compound: "C[C@@]1(c2ccccc2)CN(c2cccc(S(C)(=O)=O)c2)CCN1Cc1ccc(C(F)(F)F)cc1 [46-20]"
  pEC50: "< 4.70"
- Compound: "CC(C)[C@@H]1CN(c2ccc(F)c(S(C)(=O)=O)c2)CCN1c1ncc(C(=O)N2CCOCC2)c(C(F)(F)F)n1 [17-8]"
  pEC50: "< 4.70"

Can you give me pEC50 for all of these, one by one?
1. CCCCN(C)C(=O)c1cnc(N2CCN(c3ccc(F)c(S(C)(=O)=O)c3)C[C@H]2C(C)C)nc1C(F)(F)F [17-10]
2. CS(=O)(=O)c1cccc(N2CCN(Cc3ccc(C(F)(F)F)c(F)c3)[C@H](c3ccccc3)C2)c1 (single isomer, unassigned) [46-25]
3. CCN(CCOC)C(=O)c1cnc(N2CCN(c3ccc(F)c(S(C)(=O)=O)c3)C[C@H]2C(C)C)nc1C [17-30]
4. COC(=O)c1ccc(N2CCN(C(=O)OC(C)(C)C)C(c3ccccc3)C2)cc1S(C)(=O)=O (stereo not drawn) [2-3]
5. CS(=O)(=O)c1cccc(N2CCN(C[C@H]3CCC[C@@H](C(F)(F)F)C3)[C@@H](c3ccc(F)cc3)C2)c1 [48-42]
6. Cc1nc(N2CCN(c3ccc(F)c(S(C)(=O)=O)c3)C[C@@H]2C(C)(C)O)ccc1C(F)(F)F [10-9]
7. CS(=O)(=O)c1cccc(N2CCN(Cc3ccc(C(F)(F)F)nc3)C(c3ccc(F)cc3)C2)c1 (stereo not drawn) [46-51]
8. COc1cnc(N2CCN(c3ccc(F)c(S(C)(=O)=O)c3)C[C@H]2C(C)C)nc1C(F)(F)F [Cpd No 29-1]

Ans.
< 4.70
< 4.70
< 4.70
< 4.70
< 4.70
< 4.70
5.44
6.58

Can you give me pEC50 for all of these, one by one?
1. CS(=O)(=O)c1cccc(N2CCN(C[C@@H]3CCC[C@H](C(F)(F)F)C3)[C@@H](c3ccc(F)cc3)C2)c1 (single isomer, unassigned) [48-41]
2. Cc1ccc(N2CCN(c3cccc(S(C)(=O)=O)c3)C[C@H]2C(C)C)nn1 [7-46]
3. Cc1nc(N2CCN(c3ccc(F)c(S(C)(=O)=O)c3)C[C@H]2C(C)C)ncc1F [7-23]
4. CC(C)[C@@H]1CN(c2ccc(F)c(S(C)(=O)=O)c2)CCN1c1ncc(C(N)=O)c(C(F)(F)F)n1 [Cpd No 17-2]
5. CC(C)[C@@H]1CN(c2ccc(F)c(S(C)(=O)=O)c2)CCN1c1ncc(CN)c(C(F)(F)F)n1 [15-2]

Ans.
5.84
4.83
5.82
5.75
< 4.70

----------
molecular target: Gal4 DNA binding domain fused to the LBD of LXRβ in HEK293 cells (Homo sapiens (Human), UniProt P55055); assay: cell-based; conditions: agonist mode
Sequence (P55055 222-460 limits assumed): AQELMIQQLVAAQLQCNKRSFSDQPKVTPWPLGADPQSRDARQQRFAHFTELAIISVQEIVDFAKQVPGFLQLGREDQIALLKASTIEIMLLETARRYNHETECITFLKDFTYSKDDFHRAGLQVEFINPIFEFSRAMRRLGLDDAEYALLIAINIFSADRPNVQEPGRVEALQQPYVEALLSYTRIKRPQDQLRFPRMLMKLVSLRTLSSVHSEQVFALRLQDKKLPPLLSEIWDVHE
Measurement type: Cell LXRβ efficacy

Worked examples, 3 compounds total:
- Compound: "C[C@@](O)(c1ccc(CN2CCN(c3cccc(S(C)(=O)=O)c3)C[C@H]2c2ccccc2)cc1)C(F)(F)F (single isomer, unassigned)"
  Cell LXRβ efficacy: "532 (12) %"
- Compound: "Cc1noc(-c2ccc(N3CCN(c4ncc(CO)c(C(F)(F)F)n4)[C@H](C(C)C)C3)cc2S(C)(=O)=O)n1"
  Cell LXRβ efficacy: "2253 (36) %"
- Compound: "CC(C)[C@@H]1CN(c2ccc(CO)c(S(C)(=O)=O)c2)CCN1c1nc(C(F)(F)F)c(CO)s1"
  Cell LXRβ efficacy: "292 (89) %"

Can you give me Cell LXRβ efficacy for all of these, one by one?
1. CC(C)[C@@H]1CN(c2ccc(-c3nc(C#N)cs3)c(S(C)(=O)=O)c2)CCN1c1ncc(CO)c(C(F)(F)F)n1
2. COC(=O)c1cnc(N2CCN(c3ccc(F)c(S(C)(=O)=O)c3)C[C@H]2c2ccc(F)cc2)nc1C(F)(F)F

Ans.
1: 41 (73) %; 2: 780 (13) %

----------
target: Gal4 DNA binding domain fused to the LBD of LXRβ in HEK293 cells (Homo sapiens (Human), UniProt P55055); test: cell-based; details: Biological Test Example 2, agonist mode
Could you please report measured Cell LXRβ efficacy for the items listed next?

Worked examples, 5 compounds total:
- Compound: "CC(C)[C@H]1CN(c2cccc(S(C)(=O)=O)c2)CCN1CC1CCC(C)(C)OC1 (stereo partly drawn)"
  Cell LXRβ efficacy: "590 (50) %"
- Compound: "CC1(C)CCC(O)(CN2CCN(c3cccc(S(C)(=O)=O)c3)C[C@H]2c2ccccc2)CC1"
  Cell LXRβ efficacy: "2082 (56) %"
- Compound: "CS(=O)(=O)c1cccc(N2CCN(C[C@H]3CC[C@@H](C(F)(F)F)OC3)[C@@H](c3ccc(F)cc3)C2)c1 (single isomer, unassigned)"
  Cell LXRβ efficacy: "575 (23) %"
- Compound: "CS(=O)(=O)c1cccc(N2CCN(C[C@@H]3CC[C@@H](C(F)(F)F)OC3)[C@@H](c3ccc(F)cc3)C2)c1 (single isomer, unassigned)"
  Cell LXRβ efficacy: "887 (21) %"
- Compound: "CS(=O)(=O)c1cccc(N2CCN(C[C@H]3CCN(CC(F)(F)F)C3)[C@H](c3ccccc3)C2)c1 (single isomer, unassigned)"
  Cell LXRβ efficacy: "6832 (7) %"

Switching to the query record.
The recorded Cell LXRβ efficacy for CC(C)[C@H]1CN(c2cccc(S(C)(=O)=O)c2)CCN1CC1CCOCC1 is 1362 (7) %

----------
molecular target: Gal4 DNA binding domain fused to the LBD of LXRα in HEK293 cells (Homo sapiens (Human), UniProt Q13133); assay: LXR luciferase transcriptional reporter gene assay, agonist mode, LXRα; assay type: cell-based
Could you please report measured Cell LXRα efficacy for the items listed next?

Worked examples, 6 compounds total:
- Compound: "CC(C)[C@@H]1CN(c2ccc(F)c(S(C)(=O)=O)c2Cl)CCN1c1ncc(Cl)c(C2CC2)n1"
  Val: "1227 (7) %"
- Compound: "CS(=O)(=O)c1cc(N2CCN(c3ncc(CO)c(C(F)(F)F)n3)[C@H](c3ccc(F)cc3)C2)ccc1F"
  Val: "2240 (13) %"
- Compound: "CC(C)[C@@H]1CN(c2ccc(F)c(S(N)(=O)=O)c2)CCN1c1ncc(CO)c(C(F)(F)F)n1"
  Val: "1336 (57) %"
- Compound: "CC(C)[C@@H]1CN(c2cccc(S(N)(=O)=O)c2)CCN1c1nccc(C(F)(F)F)n1"
  Val: "248 (95) %"
- Compound: "CC(C)[C@H]1CN(c2ccc(CO)c(S(C)(=O)=O)c2)CCN1Cc1ccc(C(F)(F)F)cc1"
  Val: "455 (70) %"
- Compound: "C[C@]1(c2ccccc2)CN(c2cccc(S(C)(=O)=O)c2)CCN1Cc1ccc(C(F)(F)F)c(Cl)c1 (single isomer, unassigned)"
  Val: "2082 (24) %"

Can you give me Cell LXRα efficacy for all of these, one by one?
1. COC(=O)c1cnc(N2CCN(c3ccc(F)c(S(C)(=O)=O)c3)C[C@H]2c2ccc(F)cc2)nc1C(F)(F)F
2. CC(C)[C@@H]1CN(c2ccc(C#N)c(S(C)(=O)=O)c2)CCN1c1cc(C(F)(F)F)ccn1
3. CC(C)[C@H]1CN(c2cccc(S(C)(=O)=O)c2)CCN1C[C@H]1CC[C@H](C(F)(F)F)CC1 (single isomer, unassigned)
4. CCOC(=O)c1cnc(N2CCN(c3ccc(F)c(S(C)(=O)=O)c3)C[C@H]2CC(C)C)nc1C(F)(F)F
5. CS(=O)(=O)c1cccc(N2CCN(C[C@@H]3CCC(C(F)(F)F)OC3)[C@@H](c3ccc(F)cc3)C2)c1 (single isomer, unassigned)
6. CCOC(=O)c1cnc(N2CCN(c3ccc(-c4nnc(C)s4)c(S(C)(=O)=O)c3)C[C@H]2C(C)C)nc1C(F)(F)F
7. Cc1ccc(N2CCN(c3cccc(S(C)(=O)=O)c3)C[C@H]2C(C)C)nc1C1CC1

Ans.
1. 3041 (6) %
2. 1502 (80) %
3. 363 (66) %
4. 960 (34) %
5. 2637 (51) %
6. 2862 (21) %
7. 3505 (14) %
